testSystem: human IgG1 (human)
protocol: SPR, Biacore X-100, human IgG1 on the chip, single cycle kinetics
Hi there, I'd appreciate the recorded koff for every entry that follows.

Ask: GET /values?readout=koff&item= R3-26 repCK+ori6K (scFv) scFv: QEQLVESGGGLVKPGGTLTLTCTVSGIDLSSYAMSWVRQVPGKGLEWIGIIGSGGGTAYANWARGRFTISRTSSTTVDLRMTSLTTEDTATYFCATDYGIYGYAYGHLWGPGTLVTVTKGGGGSGGGGSGGGGSELVMTQTASPVSAKVGGTVTINCQASQSISTALAWYQQKPGQPPRLLIYDASTLASGVSSRFSGSGSGTEFTLTISDLESADAATYYCQTYFGSDTDNAFGEGTEVEIKGSAAALEHHHHHH
Result: 6.2e-05 s⁻¹

Ask: GET /values?readout=koff&item= single-chain antibody R3-26 (scFv) scFv: QEQLVESGGGLVKPGGTLTLTCTVSGIDLSSYAMSWVRQVPGKGLEWIGIIGSGGGTAYANWAKGRFTISKTSSTTVDLKMTSLTTEDTATYFCATDYGIYGYAYGHLWGPGTLVTVTSGGGGSGGGGSGGGGSELVMTQTASPVSAAVGGTVTIKCQASQSISTALAWYQQRPGQPPKLLIYDASTLASGVSSRFKGSGSGTEFTLTISDLECADAATYYCQTYFGSDTDNAFGEGTEVEITGSAAALEHHHHHH
Result: 4.3e-05 s⁻¹

Ask: GET /values?readout=koff&item= R3-26 repCK+K (scFv) scFv: QEQLVESGGGLVTPGGTLTLTCTVSGIDLSSYAMSWVRQVPGEGLEWIGIIGSGGGTAYANWARGRFTISRTSSTTVDLRMTSLTTEDTATYFCATDYGIYGYAYGHLWGPGTLVTVTSGGGGSGGGGSGGGGSELVMTQTASPVSAAVGGTVTINCQASQSISTALAWYQQRPGQPPRLLIYDASTLASGVSSRFSGSGSGTEFTLTISDLESADAATYYCQTYFGSDTDNAFGEGTEVEITGSAAAGGGGSKIEHHHHHH
Result: 9.1e-05 s⁻¹

Ask: GET /values?readout=koff&item= R3-26 repCK+ori6K+VH4KVL4K (scFv) scFv: QEQLVESGGGLVKPGGTLTLTCTVSGIDLSSYAMSWVRQVPGKGLEWIGIIGSGGGTAYANWARGRFTISRTSSTTVDLRMTSLTTEDTATYFCATDYGIYGYAYGHLWGPGTLVTVTKKKKKGGGGSGGGGSGGGGSELVMTQTASPVSAKVGGTVTINCQASQSISTALAWYQQKPGQPPRLLIYDASTLASGVSSRFSGSGSGTEFTLTISDLESADAATYYCQTYFGSDTDNAFGEGTEVEIKKKKKGSAAALEHHHHHH
Result: 1.6e-05 s⁻¹
